These entries and their values trace back to the supplement of paper PMC10567573.

B1: SLC6A17 (parent)
chain: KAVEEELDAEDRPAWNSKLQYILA

# Variants of: B1
# Experimental protocol: protein stability index of a GFP-peptide fusion (GPS, HEK-293T) (PSI 1-6); higher = more stable;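 also: lentivirally expressed fusions sorted by FACS into six bins by GFP to DsRed ratio, PSI derived from sequencing read proportions per bin multiplied by bin number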
# Condition details: c terminus: a fixed tail appended
Property: protein stability index; scope: individual variants
Just the number, please, no unit attached.

// worked examples, protein stability index included
Variant name: A9L
Measured endpoint: protein stability index
Reported value: 2.33
//
Variant name: L19T
Measured endpoint: protein stability index
Reported value: 3.83
//
Variant name: E5P
Measured endpoint: protein stability index
Reported value: 2.7
//
Variant name: S17R
Measured endpoint: protein stability index
Reported value: 3.4
//
Variant name: D11W
Measured endpoint: protein stability index
Reported value: 2.16
//
Variant name: R12S
Measured endpoint: protein stability index
Reported value: 3.4

# protein stability index (variant: `W15H` ) is 4.06

# protein stability index (variant: `K1P` ) is 3.03

# protein stability index (variant: `D8T` ) is 2.57

# protein stability index (variant: `E6P` ) is 2.53

# protein stability index (variant: `N16M` ) is 2.37
